Below, each entry is listed alongside its reported selective drug sensitivity score.
Test system: P30-OHKUBO
test: selective drug sensitivity score (sDSS, relative to normal bone marrow) (sDSS (score)); higher = more potent and effective on the cell line relative to normal bone marrow cells;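 further: ALL cell lines in 384-well plates, five doses spanning 10,000-fold, each plate scaled between vehicle and 100 µmol/L benzalkonium chloride controls, sDSS an adapted area-under-curve metric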
condition label: 72 h
Respond with the number and no other words.

molecule="Nc1nc2[nH]cc(CCc3ccc(C(=O)N[C@@H](CCC(=O)O)C(=O)O)cc3)c2c(=O)[nH]1 [Pemetrexed] (top concentration 10000 nM)" experimental_system=P30-OHKUBO measurement_label="selective drug sensitivity score" numeric_readout=26.4

Ask | Lab request: please report selective drug sensitivity score under test system P30-OHKUBO for C=CC(=O)Nc1cc2c(Nc3ccc(F)c(Cl)c3)ncnc2cc1OCCCN1CCOCC1 [Canertinib] (top concentration 10000 nM)
Reply | 2.26

Ask | Quick check: selective drug sensitivity score on P30-OHKUBO, item COc1ccc(CCc2nc3cc(-c4c(C)noc4C)ccc3n2C[C@H](C)N2CCOCC2)cc1Cl [SGC-CBP30] (top concentration 25000 nM) ?
Reply | 1.88

====

Tested on: 697
test: selective drug sensitivity score (sDSS, relative to normal bone marrow) (sDSS (score)); higher = more potent and effective on the cell line relative to normal bone marrow cells
condition label: 72 h
measurement label: selective drug sensitivity score
Field format: numeric only.

Ask | # query: selective drug sensitivity score of entry CNS(=O)(=O)Nc1nccc(Cc2c(C)c3ccc(Oc4ncccn4)cc3oc2=O)c1F (top concentration 1000 nM)
Reply | 0.02

Ask | What value of selective drug sensitivity score has been reported for the following molecule? NC(=O)Nc1cc(-c2cccc(F)c2)sc1C(=O)N[C@H]1CCCNC1 [AZD7762] (top concentration 1000 nM)
Reply | 2.6

Ask | Data request, read-out selective drug sensitivity score, for CNC(=O)c1ccccc1Nc1nc(Nc2ccc3c(c2OC)CCC[C@H](N2CCN(CCO)CC2)C3)ncc1Cl (top concentration 5000 nM)
Reply | 2.86

Ask | For Cn1c(=O)n(-c2ccc(C(C)(C)C#N)cc2)c2c3cc(-c4cnc5ccccc5c4)ccc3ncc21 [Dactolisib] (top concentration 1000 nM) , what is its reported selective drug sensitivity score?
Reply | 15.8

Ask | Suppose we examine the molecule OC[C@H]1O[C@@H](n2cnc3c2N=CNC[C@H]3O)C[C@@H]1O [Pentostatin] (top concentration 10000 nM) ; what selective drug sensitivity score value has been reported?
Reply | -0.44

====

Entries and their selective drug sensitivity score
Test system: DND-41
test: selective drug sensitivity score (sDSS, relative to normal bone marrow) (sDSS (score)); higher = more potent and effective on the cell line relative to normal bone marrow cells
condition label: 72 h
I'd appreciate a reply containing only the number, no unit.

compound="Cc1cccc(CC(=O)N2CCc3c2ccc(-c2cn(C)c4ncnc(N)c24)c3F)n1 (top concentration 2500 nM)" numeric_readout=-0.68

Ask | Need selective drug sensitivity score, item CN(C)Cc1ccc(S(=O)(=O)n2ccc(/C=C/C(=O)NO)c2)cc1 [Resminostat] (top concentration 10000 nM)
Reply | 1.74

Ask | Entry under review: Nc1cc(F)ccc1NC(=O)/C=C/c1cnn(C/C=C/c2ccccc2)c1 [RGFP966] (top concentration 10000 nM) . Reported selective drug sensitivity score?
Reply | 6.84

Ask | State the recorded selective drug sensitivity score for this entry: CC/C(=C(\c1ccc(O)cc1)c1ccc(OCCN(C)C)cc1)c1ccccc1 [4-hydroxytamoxifen] (top concentration 10000 nM)
Reply | 2.72

====

System: MHH-CALL-3
test: selective drug sensitivity score (sDSS, relative to normal bone marrow) (sDSS (score)); higher = more potent and effective on the cell line relative to normal bone marrow cells
condition label: 72 h
Label not satisfied if selective drug sensitivity score falls below 3; label satisfied in every other case.

Below, 5 compounds whose answers are already recorded.
compound="C1=N/C2=N/c3ccc(OCCN4CCCC4)c(c3)COC/C=C/COCc3cccc(c3)C(=C1)N2 [Pacritinib] (top concentration 10000 nM)" category="not satisfied"
compound="COc1nc(N)nc2c1ncn2[C@@H]1O[C@H](CO)[C@@H](O)[C@@H]1O [Nelarabine] (top concentration 10000 nM)" category="not satisfied"
compound="O=C(CCCCCCC(=O)Nc1ccccc1)NO [Vorinostat] (top concentration 10000 nM)" category=satisfied
compound="CC[C@H](C)C(=O)O[C@H]1C[C@@H](C)C=C2C=C[C@H](C)[C@H](CC[C@@H]3C[C@@H](O)CC(=O)O3)[C@H]21 [Lovastatin] (top concentration 10000 nM)" category=satisfied
compound="CC(=O)c1cnc2ccc(-c3cc(Cl)c(O)c(Cl)c3)nc2c1N[C@H]1CC[C@H](CN(C)C)CC1 [OTS167] (top concentration 1000 nM)" category="not satisfied"

Would you kindly look at the next entry?
Ask | Form field: selective drug sensitivity score at least 3? Entry: CC[C@@H]1C(=O)N(C)c2cnc(Nc3ccc(C(=O)N[C@H]4CC[C@H](N5CCN(CC6CC6)CC5)CC4)cc3OC)nc2N1C(C)C [Volasertib] (top concentration 1000 nM)
Reply | not satisfied

====

Tested on: HPB-ALL
test: selective drug sensitivity score (sDSS, relative to normal bone marrow) (sDSS (score)); higher = more potent and effective on the cell line relative to normal bone marrow cells
condition label: 72 h
# reported selective drug sensitivity score; entries follow
Please give the numeric answer without any surrounding text.

Ask | Tell me the measured selective drug sensitivity score of FC(F)c1nc2ccccc2n1-c1nc(N2CCOCC2)nc(N2CCOCC2)n1 [ZSTK474] (top concentration 10000 nM) , please.
Reply | -1.04

Ask | // lookup selective drug sensitivity score for O=C(CCNC(=O)c1ccc(OC(F)(F)F)cc1)N[C@@H]1CCCc2ccccc21 [ML390] (top concentration 50000 nM)
Reply | 6.5

Ask | Fill in the blank: the reported selective drug sensitivity score of CC(=O)[C@]1(O)Cc2c(O)c3c(c(O)c2[C@@H](O[C@H]2C[C@H](N)[C@H](O)[C@H](C)O2)C1)C(=O)c1ccccc1C3=O [Idarubicin] (top concentration 1000 nM) is ____.
Reply | 3.14

Ask | I'd like to know its selective drug sensitivity score. The compound in question is COc1cc2c(cc1OC(C)C)[C@H](c1ccc(Cl)cc1)N(c1ccc(N(C)C[C@H]3CC[C@H](N4CCN(C)C(=O)C4)CC3)cc1)C(=O)C2 [NVP-CGM097] (top concentration 25000 nM)
Reply | -3.14

====

Test system: NALM-16
test: selective drug sensitivity score (sDSS, relative to normal bone marrow) (sDSS (score)); higher = more potent and effective on the cell line relative to normal bone marrow cells
condition label: 72 h
Measured selective drug sensitivity score values are reported for all entries that follow.

Ask | Which selective drug sensitivity score is listed for CC(=O)OC[C@H]1O[C@@H]([S-])[C@H](OC(C)=O)[C@@H](OC(C)=O)[C@@H]1OC(C)=O.CCP(CC)CC.[Au+] [Auranofin] (top concentration 2500 nM) ?
Reply | -0.56

Ask | Which selective drug sensitivity score reading was recorded for the compound COCC1(CO)C(=O)C2CCN1CC2 (stereo not drawn) [APR-246] (top concentration 10000 nM) ?
Reply | 2.44

Ask | // selective drug sensitivity score lookup, key: Cc1cc([C@@H](C)Nc2ccccc2C(=O)O)c2nc(N3CCOCC3)cc(=O)n2c1 [AZD-6482] (top concentration 2500 nM)
Reply | 0.42

====

Test system: MHH-CALL-4
test: selective drug sensitivity score (sDSS, relative to normal bone marrow) (sDSS (score)); higher = more potent and effective on the cell line relative to normal bone marrow cells
condition label: 72 h
Binary call on selective drug sensitivity score: true (1) from -0.04 upward, false (0) beneath that.

Consider the following illustrative entries.
compound="CCC(C)n1ncn(-c2ccc(N3CCN(c4ccc(OCC5COC(Cn6cncn6)(c6ccc(Cl)cc6Cl)O5)cc4)CC3)cc2)c1=O (configuration not stated) [Itraconazole] (top concentration 5000 nM)" category="false (0)"
compound="CN(C)Cc1c(C(=O)NCCOc2ccc(C(=O)NO)cc2)oc2ccccc12 [Abexinostat] (top concentration 10000 nM)" category="true (1)"
compound="CN1CCN(c2cc(C(=O)Nc3ccc4c(c3)-c3c(c(C(N)=O)nn3-c3ccc(F)cc3)CC4)c(Cl)cn2)CC1 [PHA-408] (top concentration 10000 nM)" category="true (1)"
compound="NC(=O)c1cccc2cn(-c3ccc(C4CCCNC4)cc3)nc12 (configuration not stated) [Niraparib] (top concentration 10000 nM)" category="true (1)"
compound="CNC(=O)c1ccccc1Nc1cc(Nc2ccc(N3CCOCC3)cc2OC)ncc1C(F)(F)F [VS-4718] (top concentration 10000 nM)" category="true (1)"

Ask | API: above_or_equal(metric=selective drug sensitivity score, cutoff=-0.04) for item Cn1cc(-c2cnn3c(N)c(Br)c([C@@H]4CCCNC4)nc23)cn1 [MK-8776] (top concentration 2500 nM)
Reply | false (0)

Ask | Confirm if selective drug sensitivity score reported for the compound CN1CCN(c2ccc(C(=O)Nc3n[nH]c4ccc(Cc5cc(F)cc(F)c5)cc34)c(NC3CCOCC3)c2)CC1 [Entrectinib] (top concentration 1000 nM) is -0.04 or above.
Reply | true (1)

Ask | Does the compound CO[C@H]1C(=O)[C@]2(C)[C@@H](OC)C[C@H]3OC[C@@]3(OC(C)=O)[C@H]2[C@H](OC(=O)c2ccccc2)[C@]2(O)C[C@H](OC(=O)[C@H](O)[C@@H](NC(=O)OC(C)(C)C)c3ccccc3)C(C)=C1C2(C)C [Cabazitaxel] (top concentration 1000 nM) have recorded selective drug sensitivity score that is -0.04 or more?
Reply | true (1)

Ask | Does the reported selective drug sensitivity score for O=C1Cc2cc(C(=O)NC3C[C@H]4CC[C@@H](C3)N4S(=O)(=O)CC3CCN(CCCC(F)(F)F)CC3)c(Cl)cc2N1 (some centres not stated) (top concentration 10000 nM) fall at or above the -0.04 mark?
Reply | true (1)

Ask | Hi team, for CCOC(=O)CCNc1cc(N2CCc3ccccc3CC2)nc(-c2ccccn2)n1 [GSK-J4] (top concentration 100000 nM) , is the recorded selective drug sensitivity score at or above -0.04?
Reply | false (0)

Ask | Would you say O=C(c1ccc(OCCN2CCCCC2)cc1)c1c(-c2ccc(O)cc2)sc2cc(O)ccc12 [Raloxifene] (top concentration 10000 nM) shows selective drug sensitivity score at minimum -0.04?
Reply | false (0)
